molecular target: ATR kinase (full-length ATR) (Homo sapiens (Human)); experiment: ATR inhibition assay (radioactive-phosphate incorporation); assay type: biochemical; conditions: Ki(app), 5 nM full-length ATR, 10 μM ATP, 25° C.
pKi: −log10 of the molar value.
Entries and their measured pKi follow.

CS(=O)(=O)CC1CCN(c2ccncc2NC(=O)c2c(N)nn3cc(F)cnc23)CC1 ... 6.00 to 8.00

Lab book: pKi of CN1CC2(CCN(c3ccncc3NC(=O)c3c(N)nn4cc(F)cnc34)CC2)CC1=O noted as 6.00 to 8.00

Lab book: pKi of CN1CCN(c2ccncc2NC(=O)c2c(N)nn3cc(Cl)cnc23)CC1(C)C noted as 6.00 to 8.00

Lab book: pKi of Nc1nn2cc(F)cnc2c1C(=O)Nc1cncc(F)c1N1CCC(C(=O)N2CCNCC2)CC1 noted as 6.00 to 8.00

Lab book: pKi of N#CCc1cnc2c(C(=O)Nc3cnccc3OCC(F)(F)F)c(N)nn2c1 noted as > 8.00

###

Entries and their measured pKi follow.
target: ATR kinase (full-length ATR) (Homo sapiens (Human)); test: ATR inhibition assay (radioactive-phosphate incorporation); format: biochemical; details: Ki(app), 5 nM full-length ATR, 10 μM ATP, 25° C.
pKi: −log10 of the molar value.

Illustrative cases are given below, each with its answer.
N#CCc1cnc2c(C(=O)Nc3cnccc3O[C@@H]3CCNC3)c(N)nn2c1 ... 6.00 to 8.00
Nc1nn2cc(F)cnc2c1C(=O)Nc1cncc(F)c1N1CCC(C(=O)N2CCOCC2)CC1 ... 6.00 to 8.00
Nc1nn2cc(Cl)cnc2c1C(=O)Nc1cnccc1OC1CCNCC1 ... 6.00 to 8.00
CN1CC(NC(=O)C2CCN(c3c(F)cncc3NC(=O)c3c(N)nn4cc(F)cnc34)CC2)C1 ... 6.00 to 8.00
Cc1nc(C(=O)N2CCN(C)CC2)ccc1-c1ccncc1NC(=O)c1c(N)nn2cc(F)cnc12 ... 6.00 to 8.00
Nc1nn2cc(F)cnc2c1C(=O)Nc1cncc(F)c1N1CCNCC1 ... 6.00 to 8.00

Lab book: pKi of Nc1nn2cc(Cl)cnc2c1C(=O)Nc1cnccc1O[C@H]1CCCNC1 noted as 6.00 to 8.00

Lab book: pKi of COCCOc1ccncc1NC(=O)c1c(N)nn2cc(CC#N)cnc12 noted as > 8.00

###

target: ATR kinase (full-length ATR) (Homo sapiens (Human)); test: ATR inhibition assay (radioactive-phosphate incorporation); assay type: biochemical; conditions: Ki(app), 5 nM full-length ATR, 10 μM ATP, 25° C.
pKi: −log10 of the molar value.
PROPERTY: pKi

CN1CCN(C(=O)C2CCN(c3c(F)cncc3NC(=O)c3c(N)nn4cc(F)cnc34)CC2)CC1 ... 6.00 to 8.00
CCN1CCN(C(=O)C2CCN(c3c(F)cncc3NC(=O)c3c(N)nn4cc(F)cnc34)CC2)CC1 ... 6.00 to 8.00
CN(C)C1CN(C(=O)C2CCN(c3c(F)cncc3NC(=O)c3c(N)nn4cc(F)cnc34)CC2)C1 ... 6.00 to 8.00
Nc1nn2cc(F)cnc2c1C(=O)Nc1cnccc1O[C@H]1CN2CCC1CC2 ... 6.00 to 8.00
CN1CC(N2CCN(C(=O)C3CCN(c4c(F)cncc4NC(=O)c4c(N)nn5cc(F)cnc45)CC3)CC2)C1 ... 6.00 to 8.00

Lab book: pKi of Nc1nn2cc(Cl)cnc2c1C(=O)Nc1cnccc1N1CCN2CCC[C@@H]2C1 noted as 6.00 to 8.00

Lab book: pKi of Nc1nn2cc(Cl)cnc2c1C(=O)Nc1cnccc1O[C@H]1CCNC1 noted as 6.00 to 8.00

Lab book: pKi of CN(C)C(=O)C1CN(c2ccncc2NC(=O)c2c(N)nn3cc(F)cnc23)CCO1 (centres unmarked) noted as 6.00 to 8.00

Lab book: pKi of CN1CCN(C(=O)c2ccc(-c3ccncc3NC(=O)c3c(N)nn4cc(F)cnc34)cn2)CC1 noted as 6.00 to 8.00

Lab book: pKi of COC(=O)[C@H]1CC[C@@H](Oc2ccncc2NC(=O)c2c(N)nn3cc(F)cnc23)CC1 noted as 6.00 to 8.00

Lab book: pKi of Nc1nn2cc(F)cnc2c1C(=O)Nc1cnccc1OC1CCOC1 (racemic) noted as 6.00 to 8.00

Lab book: pKi of CS(=O)(=O)C1CCCN(c2ccncc2NC(=O)c2c(N)nn3cc(F)cnc23)C1 (centres unmarked) noted as 6.00 to 8.00

Lab book: pKi of CN1CCCN(C(=O)C2CCN(c3c(F)cncc3NC(=O)c3c(N)nn4cc(F)cnc34)CC2)CC1 noted as 6.00 to 8.00

Lab book: pKi of CN1CCOC2(CCN(c3c(F)cncc3NC(=O)c3c(N)nn4cc(F)cnc34)CC2)C1 noted as 6.00 to 8.00

###

Entries and their measured Ki follow.
molecular target: ATR kinase (full-length ATR) (Homo sapiens (Human)); assay: ATR inhibition assay (radioactive-phosphate incorporation); assay type: biochemical; conditions: Ki(app), 5 nM full-length ATR, 10 μM ATP, 25° C.

Illustrative cases are given below, each with its answer.
CS(=O)(=O)C1CN(C(=O)C2CCN(c3ccncc3NC(=O)c3c(N)nn4cc(F)cnc34)CC2)C1 [I-G-89] ... 10 to 1000 nM
Nc1nn2cc(F)cnc2c1C(=O)Nc1cncc(Cl)c1N1CCN2CCN(C3COC3)CC2C1 (stereo not shown) [I-N-38] ... 10 to 1000 nM
CC1(N2CCN(c3ccncc3NC(=O)c3c(N)nn4cc(F)cnc34)CC2)COC1 [I-N-62] ... 10 to 1000 nM

Lab book: Ki of CN1CC2(CCN(c3c(F)cncc3NC(=O)c3c(N)nn4cc(F)cnc34)CC2)OC1=O [I-N-229] noted as 10 to 1000 nM

###

molecular target: ATR kinase (full-length ATR) (Homo sapiens (Human)); experiment: ATR inhibition assay (radioactive-phosphate incorporation); assay type: biochemical; settings: Ki(app), 5 nM full-length ATR, 10 μM ATP, 25° C.
Entries and their measured Ki follow.

Illustrative cases are given below, each with its answer.
Nc1nn2cc(F)cnc2c1C(=O)Nc1cncc(F)c1N1CCN(C(=O)C2CNC2)CC1 [I-N-168] ... 10 to 1000 nM
N#CCc1cnc2c(C(=O)Nc3cnccc3N3CCCCC3)c(N)nn2c1 [I-N-84] ... < 10 nM
N#CCc1cnc2c(C(=O)Nc3cnccc3OC3CCCCC3)c(N)nn2c1 [I-O-39] ... < 10 nM

Lab book: Ki of CN(C)CCOCCOc1ccncc1NC(=O)c1c(N)nn2cc(Cl)cnc12 [I-O-47] noted as 10 to 1000 nM

###

molecular target: ATR kinase (full-length ATR) (Homo sapiens (Human), UniProt Q13535); experiment: ATR inhibition assay (radioactive-phosphate incorporation); format: biochemical; conditions: Ki(app), 5 nM full-length ATR, 10 μM ATP, 25° C.
Sequence (Q13535 whole entry): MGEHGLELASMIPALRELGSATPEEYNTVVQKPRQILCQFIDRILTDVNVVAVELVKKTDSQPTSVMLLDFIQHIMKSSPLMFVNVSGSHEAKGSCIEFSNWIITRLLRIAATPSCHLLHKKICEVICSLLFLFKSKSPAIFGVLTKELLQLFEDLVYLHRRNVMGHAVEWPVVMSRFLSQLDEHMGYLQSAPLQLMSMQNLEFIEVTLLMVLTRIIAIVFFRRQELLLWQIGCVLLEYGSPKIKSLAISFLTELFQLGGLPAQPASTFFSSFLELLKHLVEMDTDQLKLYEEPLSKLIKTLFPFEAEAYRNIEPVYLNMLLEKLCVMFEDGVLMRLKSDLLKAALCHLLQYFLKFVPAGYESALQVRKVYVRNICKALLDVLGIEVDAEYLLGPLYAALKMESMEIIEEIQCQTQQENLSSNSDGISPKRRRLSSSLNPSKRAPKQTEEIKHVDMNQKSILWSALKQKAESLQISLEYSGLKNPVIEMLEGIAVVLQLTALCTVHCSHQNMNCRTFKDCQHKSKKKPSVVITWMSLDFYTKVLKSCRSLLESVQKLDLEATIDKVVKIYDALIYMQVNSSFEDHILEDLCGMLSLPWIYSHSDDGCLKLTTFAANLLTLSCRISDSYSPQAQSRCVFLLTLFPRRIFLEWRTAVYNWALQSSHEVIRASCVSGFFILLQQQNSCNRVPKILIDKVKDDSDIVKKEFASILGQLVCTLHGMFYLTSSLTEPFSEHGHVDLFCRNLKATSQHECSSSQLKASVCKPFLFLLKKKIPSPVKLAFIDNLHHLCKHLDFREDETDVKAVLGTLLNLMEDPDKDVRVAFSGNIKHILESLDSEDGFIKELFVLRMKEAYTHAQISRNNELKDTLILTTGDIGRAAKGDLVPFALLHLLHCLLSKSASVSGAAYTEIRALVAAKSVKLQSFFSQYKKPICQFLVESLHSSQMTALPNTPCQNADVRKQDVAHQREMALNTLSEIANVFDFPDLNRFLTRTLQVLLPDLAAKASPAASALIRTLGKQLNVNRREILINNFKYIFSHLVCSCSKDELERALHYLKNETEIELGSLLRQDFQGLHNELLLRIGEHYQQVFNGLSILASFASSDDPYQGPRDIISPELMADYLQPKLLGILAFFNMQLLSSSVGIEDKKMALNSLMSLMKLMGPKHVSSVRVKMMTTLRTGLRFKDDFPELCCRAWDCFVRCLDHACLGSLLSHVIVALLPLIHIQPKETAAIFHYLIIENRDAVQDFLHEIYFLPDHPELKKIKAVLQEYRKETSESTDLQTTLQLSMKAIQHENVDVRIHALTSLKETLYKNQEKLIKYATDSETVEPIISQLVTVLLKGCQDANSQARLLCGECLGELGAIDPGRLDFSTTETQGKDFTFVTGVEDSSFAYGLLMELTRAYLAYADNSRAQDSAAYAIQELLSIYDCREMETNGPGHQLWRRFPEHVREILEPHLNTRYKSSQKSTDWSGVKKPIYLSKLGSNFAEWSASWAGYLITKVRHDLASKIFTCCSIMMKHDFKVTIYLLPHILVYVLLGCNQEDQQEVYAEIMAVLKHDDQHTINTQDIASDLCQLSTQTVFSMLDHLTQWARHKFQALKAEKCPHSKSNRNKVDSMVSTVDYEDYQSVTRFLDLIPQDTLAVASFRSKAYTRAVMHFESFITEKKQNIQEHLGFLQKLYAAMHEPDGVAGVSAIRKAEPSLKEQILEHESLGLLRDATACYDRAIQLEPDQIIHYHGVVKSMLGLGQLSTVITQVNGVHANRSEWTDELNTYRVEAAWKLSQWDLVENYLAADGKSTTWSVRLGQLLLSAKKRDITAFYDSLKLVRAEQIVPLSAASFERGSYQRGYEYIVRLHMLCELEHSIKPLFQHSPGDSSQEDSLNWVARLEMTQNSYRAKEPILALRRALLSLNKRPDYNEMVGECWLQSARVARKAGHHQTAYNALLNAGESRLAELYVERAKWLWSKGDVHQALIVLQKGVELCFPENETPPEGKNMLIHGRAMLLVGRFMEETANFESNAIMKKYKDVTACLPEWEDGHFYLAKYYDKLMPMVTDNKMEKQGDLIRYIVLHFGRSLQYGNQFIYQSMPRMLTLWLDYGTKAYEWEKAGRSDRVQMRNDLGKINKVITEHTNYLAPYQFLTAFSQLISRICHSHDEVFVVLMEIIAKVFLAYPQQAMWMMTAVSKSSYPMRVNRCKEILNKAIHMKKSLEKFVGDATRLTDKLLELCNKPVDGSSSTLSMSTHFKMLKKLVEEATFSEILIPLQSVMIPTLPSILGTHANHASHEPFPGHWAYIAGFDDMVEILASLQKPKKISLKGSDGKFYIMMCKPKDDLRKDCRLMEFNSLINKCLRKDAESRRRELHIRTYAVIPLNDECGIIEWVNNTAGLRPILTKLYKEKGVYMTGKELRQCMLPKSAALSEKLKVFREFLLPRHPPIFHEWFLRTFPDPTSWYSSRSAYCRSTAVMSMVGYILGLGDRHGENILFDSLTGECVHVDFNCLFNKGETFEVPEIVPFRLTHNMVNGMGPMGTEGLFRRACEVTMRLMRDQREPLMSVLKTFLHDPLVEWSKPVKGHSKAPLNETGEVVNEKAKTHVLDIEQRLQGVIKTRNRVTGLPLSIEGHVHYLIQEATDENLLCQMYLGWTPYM
pKi: −log10 of the molar value.
Entries and their measured pKi follow.

Illustrative cases are given below, each with its answer.
Nc1nn2cc(F)cnc2c1C(=O)Nc1cnccc1N1CCN(CC(F)(F)F)CC1 ... 6.00 to 8.00
N#CCc1cnc2c(C(=O)Nc3cnccc3O[C@@H]3CCOC3)c(N)nn2c1 ... > 8.00
N#CCc1cnc2c(C(=O)Nc3cnccc3OC3CCOC3)c(N)nn2c1 (racemic) ... > 8.00
CN(C)[C@@H]1CCN(C(=O)C2CCN(c3c(F)cncc3NC(=O)c3c(N)nn4cc(F)cnc34)CC2)C1 ... 6.00 to 8.00

Lab book: pKi of CC(=O)N1CCC(c2ccncc2NC(=O)c2c(N)nn3cc(F)cnc23)CC1 noted as 6.00 to 8.00

Lab book: pKi of Nc1nn2cc(F)cnc2c1C(=O)Nc1cncc(F)c1N1CCN(S(=O)(=O)C2CC2)CC1 noted as 6.00 to 8.00

Lab book: pKi of N#CC1CN(C(=O)C2CCN(c3ccncc3NC(=O)c3c(N)nn4cc(F)cnc34)CC2)C1 noted as 6.00 to 8.00

Lab book: pKi of CN1CCN(c2c(Cl)cncc2NC(=O)c2c(N)nn3cc(Cl)cnc23)CC1 noted as 6.00 to 8.00

Lab book: pKi of CN1CCN(C(=O)c2ccc(-c3ccncc3NC(=O)c3c(N)nn4cc(F)cnc34)cc2)CC1 noted as 6.00 to 8.00

Lab book: pKi of CN1CCN(C(=O)c2cnc(-c3ccncc3NC(=O)c3c(N)nn4cc(F)cnc34)c(Cl)c2)CC1 noted as 6.00 to 8.00
